B1: HHH_rd1_0493 (parent)
chain: RDEDEKEKIKEALKRGNEDKAKEIAKRANVSPEEYERLRKEAE

Variants of: B1
Experiment: folding stability dG (cDNA display proteolysis); higher = more stable
Details: PBS, room temperature
measured parameter: folding stability dG (kcal/mol)
Output spec: scalar in kcal/mol, unitless text.

Recorded folding stability dG, per entry:
mutant code | folding stability dG / kcal/mol
D19Q | 3.15
E36A | 2.31
K14Y | 1.97
A21F | 0.6
K14D | 1.1

### Prompt Entry A21G has what folding stability dG?
### Response 1.13

### Prompt Same again, this time with E41W
### Response 2.38

Cited source: the MegaScale stability set (Tsuboyama et al. 2023)
